target: HSP90a protein (Homo sapiens); construct: purchased BPS Bioscience 50298; assay: HSP90α-binding fluorescent polarization (FP) assay, BODIPY-labeled RNK04010 probe; conditions: FP competition with RNK04010 (BODIPY-labeled), 5 nM, 300 min at 25° C.
MEASURED_PARAMETER: IC50

Enquiry: Complete the entry with IC50 for `C=CC(=O)N1CCN(c2nc(OCCN3CCC4(CC3)CCN(C(=O)C3CCN(Cc5ccc(-n6c(C(=O)NCC(F)(F)F)nnc6-c6cc(C(C)C)c(O)cc6O)cc5)CC3)CC4)nc3c2CCN(c2cccc4cccc(Cl)c24)C3)C[C@@H]1CC#N`
Return: < 100 nM

Enquiry: Complete the entry with IC50 for `CC(=O)N1CCN(c2nc(NCCC(=O)NCCc3ccc(-n4c(O)nnc4-c4cc(C(C)C)c(O)cc4O)cc3)nc3c2CCN(c2cc(O)cc4ccccc24)C3)CC1`
Return: < 100 nM

Enquiry: Complete the entry with IC50 for `C=CC(=O)N1CCN(c2nc(NCCC(=O)N3CCC(CN4CCN(Cc5ccc(-n6c(O)nnc6-c6cc(C(C)C)c(O)cc6O)cc5)CC4)CC3)nc3c2CCN(c2cccc4cccc(Cl)c24)C3)C[C@H]1CC#N`
Return: 100 to 1000 nM

Enquiry: Complete the entry with IC50 for `C=CC(=O)N1CCN(c2nc(OC[C@@H]3C[C@@H](NC(=O)C4CCN(Cc5ccc(-n6c(O)nnc6-c6cc(C(C)C)c(O)cc6O)cc5)CC4)CN3C)nc3c2CCN(c2cccc4cccc(Cl)c24)C3)C[C@@H]1CC#N`
Return: < 100 nM

Enquiry: Complete the entry with IC50 for `CCC(=O)N1CCN(c2nc(NCCC(=O)N3CCC(CN4CCN(Cc5ccc(-n6c(C(=O)NC(C)C)nnc6-c6cc(CC)c(O)cc6O)cc5)CC4)CC3)nc3c2CCN(c2cc(O)cc4ccccc24)C3)CC1`
Return: 100 to 1000 nM

Enquiry: Complete the entry with IC50 for `C=CC(=O)N1CCN(c2nc(NCCC(=O)NCCOc3ccc(-n4c(O)nnc4-c4cc(C(C)C)c(O)cc4O)cc3)nc3c2CCN(c2cc(O)cc4ccccc24)C3)CC1`
Return: 100 to 1000 nM

Enquiry: Complete the entry with IC50 for `C=CC(=O)N1CCN(c2nc(OC[C@@H]3C[C@H](N4CCC(C(=O)N5CCN(Cc6ccc(-n7c(C(=O)NCC(F)(F)F)nnc7-c7cc(C)c(O)cc7O)cc6)CC5)CC4)CN3C)nc3c2CCN(c2cccc4cccc(Cl)c24)C3)C[C@@H]1CC#N`
Return: < 100 nM

Enquiry: Complete the entry with IC50 for `C=CC(=O)N1CCN(c2nc(NCCC(=O)N3CCN(Cc4ccc5c(c4)CN(C(=O)c4cc(CCC)c(O)cc4O)C5)CC3)nc3c2CCN(c2cc(O)cc4ccccc24)C3)CC1`
Return: > 1000 nM

Enquiry: Complete the entry with IC50 for `C=CC(=O)N1CCN(c2nc(OCC3CCN(C(=O)C4CCN(Cc5ccc(-n6c(O)nnc6-c6cc(C(C)C)c(O)cc6O)cc5)CC4)CC3)nc3c2CCN(c2cccc4cccc(Cl)c24)C3)C[C@@H]1CC#N`
Return: < 100 nM

Enquiry: Complete the entry with IC50 for `C=CC(=O)N1CCN(c2nc(OC[C@@H]3C[C@H](NC(=O)C4CCN(C(=O)c5ccc(-n6c(O)nnc6-c6cc(C(C)C)c(O)cc6O)cc5)CC4)CN3C)nc3c2CCN(c2cccc4cccc(Cl)c24)C3)C[C@@H]1CC#N`
Return: < 100 nM

Enquiry: Complete the entry with IC50 for `C=CC(=O)N1CCN(c2nc(OC[C@@H]3CCN3C(=O)C3CCN(Cc4ccc(-n5c(O)nnc5-c5cc(C(C)C)c(O)cc5O)cc4)CC3)nc3c2CCN(c2cccc4cccc(Cl)c24)C3)C[C@@H]1CC#N`
Return: < 100 nM

Enquiry: Complete the entry with IC50 for `C=CC(=O)N1CCN(c2nc(NCCC(=O)N3CCN(Cc4ccc(CN(C)Cc5ccc(-n6c(C(=O)NCC(F)(F)F)nnc6-c6cc(C(C)C)c(O)cc6O)cc5)cc4)CC3)nc3c2CCN(c2cccc4ccccc24)C3)C[C@H]1CC#N`
Return: 100 to 1000 nM

Enquiry: Complete the entry with IC50 for `C=CC(=O)N1CCN(c2nc(NCCC(=O)N3CCC(CN4CCN(Cc5ccc(-n6c(O)nnc6-c6ccc(O)cc6O)cc5)CC4)CC3)nc3c2CCN(c2cc(O)cc4ccccc24)C3)CC1`
Return: > 1000 nM

Enquiry: Complete the entry with IC50 for `C=CC(=O)N1CCN(c2nc(OCCN3CCN(C(=O)C4CCN(Cc5ccc(-n6c(C(N)=O)nnc6-c6cc(C(C)C)c(O)cc6O)cc5)CC4)CC3)nc3c2CCN(c2cccc4cccc(Cl)c24)C3)C[C@@H]1CC#N`
Return: < 100 nM

Enquiry: Complete the entry with IC50 for `C=CC(=O)N1CCN(c2nc(NCCC(=O)N3CCN(Cc4ccc5c(c4F)CN(C(=O)c4cc(C)c(O)cc4O)C5)CC3)nc3c2CCN(c2cc(O)cc4ccccc24)C3)CC1`
Return: > 1000 nM

Enquiry: Complete the entry with IC50 for `C=CC(=O)N1CCN(c2nc(NCCC(=O)NCC3CCN(C(=O)C4CCN(Cc5ccc(-n6c(O)nnc6-c6cc(CC)c(O)cc6O)cc5)CC4)CC3)nc3c2CCN(c2cccc4cccc(Cl)c24)C3)C[C@H]1CC#N`
Return: < 100 nM

Enquiry: Complete the entry with IC50 for `C=CC(=O)N1CCN(c2nc(NCCC(=O)N3CCC(CN4CCN(Cc5ccc(-n6c(O)nnc6-c6cc(C(C)C)c(O)cc6O)cc5)CC4)CC3)nc3c2CCN(c2cccc4ccccc24)C3)C[C@H]1CC#N`
Return: < 100 nM
